System: HCT-15 colon
Experiment summary: NCI tumour cell line growth inhibition, 48 h
# maps each entry to its TGI
Quantity name: TGI

>>> recorded_measurement("Brc1ccccc1C=NC12CC3CC(CC(C3)C1)C2")
"> 100 µM"
>>> recorded_measurement("C=C(C)[C@@H]1CC[C@]2(C(=O)O)CC[C@]3(C)[C@H](CC[C@@H]4[C@@]5(C)C/C(=C/c6ccc(OC)cc6)C(=O)C(C)(C)[C@@H]5CC[C@]43C)[C@@H]12")
"4.4 µM"
>>> recorded_measurement("COc1ccc(CCN2CCC(Nc3nc4ccccc4n3Cc3ccc(F)cc3)CC2)cc1")
"3.16 µM"
>>> recorded_measurement("Cc1cc(O)c(C=NC(=S)c2ccccc2)c(=O)o1")
"> 100 µM"
>>> recorded_measurement("CCOC(=O)N[C@@H]1C2CC(=O)C(O2)[C@@H]1OC (stereo not given in full)")
"> 100 µM"
>>> recorded_measurement("CCCCCCCCCCCCCCCCCC(=O)OCC(COC1OC(CS(=O)(=O)O)C(O)C(O)C1O)OC(=O)CCCCCCCCCCCCCCCCC (stereo not given)")
"> 100 µM"
>>> recorded_measurement("C/C(=N\\Nc1nc2ccccc2s1)c1cnccn1")
"18.2 µM"
>>> recorded_measurement("COc1cccc(Cn2c(-c3nonc3NC(C)=O)nc3ccccc32)c1")
"> 100 µM"
>>> recorded_measurement("CC(CO)(CBr)COC(=O)c1cc(Br)c(N)c(Br)c1 (stereo not given)")
"> 100 µM"
>>> recorded_measurement("Cc1ccc(NC2=C(Cl)C(=O)N(Cc3ccccc3)C2=O)cc1Cl")
"21.4 µM"
>>> recorded_measurement("COC(=O)c1ccc(COC(=O)N2C=CCC2C(=O)O)cc1 (stereo not given)")
"> 100 µM"
>>> recorded_measurement("CC(C)[Si](OC1=C(c2ccccc2)C(NC(=O)/C=C/c2ccc([N+](=O)[O-])cc2)CCC1)(C(C)C)C(C)C (stereo not given)")
"> 100 µM"
>>> recorded_measurement("CCOC(=O)c1[nH]cc(C)c1-c1c[nH]c2ccccc12")
"> 100 µM"
>>> recorded_measurement("CN(C)C(=S)N/N=C(\\C(=N/NC(=S)N(C)C)c1ccccn1)c1ccccn1")
"31.6 µM"
>>> recorded_measurement("CCN(CC)CCCC(Cc1ccccc1)Nc1c2ccc(Cl)cc2nc2ccc(OC)cc12 (stereo not given)")
"4.72 µM"
>>> recorded_measurement("N#Cc1c(-c2cccc(Cl)c2)cc(-c2ccc(Cl)cc2)nc1N")
"32.9 µM"
>>> recorded_measurement("Nc1cccc2c1C1=NNC(=O)CC1C2 (stereo not given)")
"> 100 µM"
>>> recorded_measurement("Cc1[nH]nc2ccc3nc(-c4ccc5[nH]ncc5c4)c4c(c3c12)CCCC4")
"12.6 µM"
>>> recorded_measurement("CC1C2(C)OC(=N)C(C#N)(C(C)O2)C1(C#N)C#N (stereo not given)")
"28.8 µM"
>>> recorded_measurement("COc1cc(C2CC(c3ccccc3)=NN2C(C)=O)cc(OC)c1OC (stereo not given)")
"> 100 µM"
>>> recorded_measurement("CCOC(=O)C(=O)Nc1c(C)cccc1C(C)C")
"> 100 µM"
>>> recorded_measurement("CCCC(=O)NC(C(=O)OCC)(N1CCOCC1)C(F)(F)F (stereo not given)")
"> 100 µM"
>>> recorded_measurement("CCC(CCN)(CCN)[N+](=O)[O-]")
"> 100 µM"
>>> recorded_measurement("C/C=C1\\CNC1C(=O)O (stereo not given)")
"> 100 µM"
>>> recorded_measurement("N#C/C(C(=S)Nc1ccccc1)=C(/N)N1CCCC1")
"> 100 µM"
>>> recorded_measurement("CCC12CC(c3ccccc3)C(C(=O)N1)C(=O)N2 (stereo not given)")
"> 100 µM"
>>> recorded_measurement("CCCC1=C(C(=O)OCC)C(c2ccccc2OC)C(C#N)=C(N)O1 (stereo not given)")
"> 100 µM"
>>> recorded_measurement("O=C(Nc1ccc(OCc2nnc(-c3ccccc3)o2)c(F)c1)Nc1ccc(Cl)c(C(F)(F)F)c1")
"14.8 µM"
>>> recorded_measurement("COc1cc(C2S/C(=C/c3ccccc3)C(=O)N2c2cc(Cl)c(Cl)cc2Cl)cc(OC)c1OC (stereo not given)")
"> 100 µM"
>>> recorded_measurement("CCOC(=O)C(C(=O)OCC)=C1N[C@H](C(=O)OCC)CS1")
"> 100 µM"
>>> recorded_measurement("N#Cc1cc(N(CCCl)CCCl)c([N+](=O)[O-])cc1[N+](=O)[O-]")
"> 100 µM"
>>> recorded_measurement("CN=C(N)/N=C(\\N)Nc1cc2ccccc2c2ccccc12")
"33.4 µM"
>>> recorded_measurement("CC(C(=O)O)/C(=C\\c1ccc2c(c1)OCO2)C(=O)O (stereo not given)")
"> 100 µM"
>>> recorded_measurement("Cc1cc2cc3cc(C)c(N)cc3[n+](C)c2cc1N")
"11.7 µM"
>>> recorded_measurement("C[C@H](N[C@H]1CCC[C@]1(O)C#Cc1ccc2c(c1)OCO2)c1ccccc1")
"> 25 µM"
